Source listed as BindingDB's records for patent US20250346597.

Target Or System: Diacylglycerol kinase alpha (Homo sapiens, UniProt P23743)
Sequence (P23743 whole entry): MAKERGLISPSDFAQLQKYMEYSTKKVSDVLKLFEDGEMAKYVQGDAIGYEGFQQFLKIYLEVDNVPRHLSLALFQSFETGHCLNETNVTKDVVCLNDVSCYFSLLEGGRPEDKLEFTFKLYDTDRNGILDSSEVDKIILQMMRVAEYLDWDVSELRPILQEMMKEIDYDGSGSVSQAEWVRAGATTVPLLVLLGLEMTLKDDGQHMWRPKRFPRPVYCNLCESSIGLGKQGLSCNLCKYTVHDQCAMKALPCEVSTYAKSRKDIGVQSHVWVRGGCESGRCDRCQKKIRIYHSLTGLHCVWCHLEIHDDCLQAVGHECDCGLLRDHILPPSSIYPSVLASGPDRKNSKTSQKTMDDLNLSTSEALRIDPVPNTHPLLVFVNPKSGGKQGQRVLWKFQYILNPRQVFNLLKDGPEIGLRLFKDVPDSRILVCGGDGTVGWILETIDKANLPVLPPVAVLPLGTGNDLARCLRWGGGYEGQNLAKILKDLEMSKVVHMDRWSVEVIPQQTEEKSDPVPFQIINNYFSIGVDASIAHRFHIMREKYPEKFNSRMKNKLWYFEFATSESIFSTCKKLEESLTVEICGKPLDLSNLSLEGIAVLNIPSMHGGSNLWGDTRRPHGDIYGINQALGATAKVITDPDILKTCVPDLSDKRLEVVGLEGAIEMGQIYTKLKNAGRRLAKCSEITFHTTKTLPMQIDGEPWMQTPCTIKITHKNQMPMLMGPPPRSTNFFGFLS
Metric Name: pIC50
To interpret pIC50, take it as minus log10 of a concentration measured in moles per litre.

stdin: Form field: pIC50 recorded for CC[C@@H]1CN(C2CC(=O)N(C)C3=CN(CC#N)NC32)[C@@H](CC)CN1C(C)c1ccc(OCCOC)cc1 (stereo partly specified) with Diacylglycerol kinase alpha (Homo sapiens, UniProt P23743) (enter value)
stdout: 7.10
